target: Serotonin 2 (5-HT2) receptor (Rattus norvegicus, UniProt P30994+P08909+P14842); test: Affinity for 5-hydroxytryptamine 2 receptor; assay type: protein assay
QUANTITY_KIND: Ki (nM)
Please give a number only; it is taken to be in nM.

Challenge: Give its Ki value. Item: Fc1ccc(N2CC3CNCCc4cccc2c43)cc1 (configuration not stated)
Response given: 1.3

Challenge: Give its Ki value. Item: COc1c(Cl)c2c3c(c1OC)N(c1ccc(F)cc1)CC3CN(C)CC2 (configuration not stated)
Response given: 0.09

Challenge: Give its Ki value. Item: COc1cc2c3c(c1OC)N(c1ccc(F)cc1)CC3CN(C)CC2 (configuration not stated)
Response given: 0.41

Challenge: Give its Ki value. Item: `CN1CCc2cccc3c2c(cn3-c2ccc(F)cc2)C1`
Response given: 13

Challenge: Give its Ki value. Item: COc1cc2c3c(c1OC)N(c1ccc(F)cc1)CC3CNCC2 (configuration not stated)
Response given: 1

Challenge: Give its Ki value. Item: `COc1cc2c3c(cn(-c4ccc(F)cc4)c3c1OC)CN(C)CC2`
Response given: 3.6

Challenge: Give its Ki value. Item: Cc1cccc2c1C(CN(C)C)CN2c1ccc(F)cc1 (configuration not stated)
Response given: 7.2

Challenge: Give its Ki value. Item: CN1CCc2cc(O)c(O)c3c2C(C1)CN3c1ccc(F)cc1 (configuration not stated)
Response given: 1700

Challenge: Give its Ki value. Item: CN1CCc2cccc3c2C(C1)CN3c1ccc(F)cc1 (configuration not stated)
Response given: 0.62

====

Molecular target: Adrenergic receptor alpha-1 (Rattus norvegicus, UniProt P15823+P23944+P43140)
Sequence (P15823 whole entry): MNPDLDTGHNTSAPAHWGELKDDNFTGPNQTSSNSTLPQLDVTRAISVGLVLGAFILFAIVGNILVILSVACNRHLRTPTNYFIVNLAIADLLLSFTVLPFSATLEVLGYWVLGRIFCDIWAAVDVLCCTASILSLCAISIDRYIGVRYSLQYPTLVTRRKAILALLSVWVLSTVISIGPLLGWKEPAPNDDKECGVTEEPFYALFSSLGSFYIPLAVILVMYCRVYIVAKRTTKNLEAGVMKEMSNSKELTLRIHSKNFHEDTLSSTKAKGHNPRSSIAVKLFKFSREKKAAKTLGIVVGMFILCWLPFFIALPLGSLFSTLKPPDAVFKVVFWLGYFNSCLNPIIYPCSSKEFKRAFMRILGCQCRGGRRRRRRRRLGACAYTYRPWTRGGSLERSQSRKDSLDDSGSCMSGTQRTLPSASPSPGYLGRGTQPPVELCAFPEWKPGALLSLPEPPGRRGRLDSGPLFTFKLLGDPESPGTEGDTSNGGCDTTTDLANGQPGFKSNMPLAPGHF
Sequence (P23944 whole entry): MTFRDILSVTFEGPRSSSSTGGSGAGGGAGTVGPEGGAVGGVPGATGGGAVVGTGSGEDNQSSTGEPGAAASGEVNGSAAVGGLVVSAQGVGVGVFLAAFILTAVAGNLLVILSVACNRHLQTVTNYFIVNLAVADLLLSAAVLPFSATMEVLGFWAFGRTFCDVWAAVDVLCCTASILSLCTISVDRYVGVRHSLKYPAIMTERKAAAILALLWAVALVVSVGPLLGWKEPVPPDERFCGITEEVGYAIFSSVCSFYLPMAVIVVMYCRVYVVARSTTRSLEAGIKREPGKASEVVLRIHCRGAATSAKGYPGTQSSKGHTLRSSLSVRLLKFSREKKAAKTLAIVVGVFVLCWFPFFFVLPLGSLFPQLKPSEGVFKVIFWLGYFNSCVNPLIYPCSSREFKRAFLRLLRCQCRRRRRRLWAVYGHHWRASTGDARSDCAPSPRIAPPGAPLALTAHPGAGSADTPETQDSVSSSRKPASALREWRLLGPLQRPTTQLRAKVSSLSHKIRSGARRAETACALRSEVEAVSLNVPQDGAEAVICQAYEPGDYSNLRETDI
Sequence (P43140 whole entry): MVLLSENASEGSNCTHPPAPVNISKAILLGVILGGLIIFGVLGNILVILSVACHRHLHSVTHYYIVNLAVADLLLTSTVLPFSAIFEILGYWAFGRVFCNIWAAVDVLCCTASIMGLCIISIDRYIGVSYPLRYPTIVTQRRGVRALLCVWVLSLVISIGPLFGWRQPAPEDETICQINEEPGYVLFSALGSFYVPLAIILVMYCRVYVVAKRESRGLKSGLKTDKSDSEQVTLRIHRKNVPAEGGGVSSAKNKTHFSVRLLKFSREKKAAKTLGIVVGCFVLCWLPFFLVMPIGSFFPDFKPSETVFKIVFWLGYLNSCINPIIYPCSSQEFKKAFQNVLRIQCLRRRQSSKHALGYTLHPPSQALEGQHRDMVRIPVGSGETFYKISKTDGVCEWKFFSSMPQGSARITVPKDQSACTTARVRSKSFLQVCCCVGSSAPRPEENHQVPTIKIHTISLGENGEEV
Test: Affinity for alpha-1 adrenergic receptor
Assay type: protein assay
QUANTITY_KIND: log10 of Ki (log10 of the value in nM)
Log scale reminder: Ki in nM, then log10 taken.

Challenge: Give its log10 of Ki value. Item: Cc1cccc2c1C(CN(C)C)CN2c1ccc(F)cc1 (stereo not given)
Response given: 1.54

Challenge: Give its log10 of Ki value. Item: Fc1ccc(N2CC3CNCCc4cccc2c43)cc1 (stereo not given)
Response given: 1.15

Challenge: Give its log10 of Ki value. Item: COc1cc2c3c(c1OC)N(c1ccc(F)cc1)CC3CNCC2 (stereo not given)
Response given: 1.76

Challenge: Give its log10 of Ki value. Item: COc1c(Cl)c2c3c(c1OC)N(c1ccc(F)cc1)CC3CN(C)CC2 (stereo not given)
Response given: 1.34

Challenge: Give its log10 of Ki value. Item: CN1CCc2cc(O)c(O)c3c2C(C1)CN3c1ccc(F)cc1 (stereo not given)
Response given: 2.82

Challenge: Give its log10 of Ki value. Item: COc1cc2c3c(c1OC)N(c1ccc(F)cc1)CC3CN(C)CC2 (stereo not given)
Response given: 1.32
